- system: NADPH oxidase 5 (Homo sapiens) (UniProt Q96PH1)
- Sequence (Q96PH1 whole entry, looked up): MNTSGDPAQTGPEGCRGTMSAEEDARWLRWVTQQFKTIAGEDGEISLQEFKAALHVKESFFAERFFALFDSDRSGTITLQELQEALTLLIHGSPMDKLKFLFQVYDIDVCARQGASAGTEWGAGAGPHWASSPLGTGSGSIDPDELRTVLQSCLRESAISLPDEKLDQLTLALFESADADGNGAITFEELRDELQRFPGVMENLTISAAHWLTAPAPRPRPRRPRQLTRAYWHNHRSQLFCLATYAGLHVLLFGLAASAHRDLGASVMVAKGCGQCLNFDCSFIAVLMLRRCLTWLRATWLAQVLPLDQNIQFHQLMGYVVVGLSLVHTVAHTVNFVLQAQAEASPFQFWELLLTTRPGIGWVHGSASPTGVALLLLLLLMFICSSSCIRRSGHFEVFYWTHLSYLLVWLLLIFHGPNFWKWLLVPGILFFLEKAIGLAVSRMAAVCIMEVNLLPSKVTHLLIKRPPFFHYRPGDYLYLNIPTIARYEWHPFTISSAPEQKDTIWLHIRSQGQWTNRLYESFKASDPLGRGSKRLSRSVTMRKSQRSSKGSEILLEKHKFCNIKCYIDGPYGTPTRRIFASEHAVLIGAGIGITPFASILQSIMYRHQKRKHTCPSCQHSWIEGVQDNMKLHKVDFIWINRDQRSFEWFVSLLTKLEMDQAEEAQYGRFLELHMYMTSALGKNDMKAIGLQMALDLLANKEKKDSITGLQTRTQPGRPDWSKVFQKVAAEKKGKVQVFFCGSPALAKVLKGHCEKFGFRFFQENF
- assay_overview: NOX5-dependent H2O2 signal modulators, primary screen, NOX inhibitor project, cell-based, HEK293-NOX5, Amplex Red fluorescence (AID 1161)
- recorded_conditions: HEK293-NOX5, ionomycin, 45 min, higher = more signal
Threshold rule: z-score greater than or equal to -0.8 is Condition met; below that, Condition not met.

Asked: Could you tell me if the measured z-score of `O=C1O[C@H](c2ccccc2)[C@H](c2ccccc2)N2[C@H]1[C@@H](C(=O)N1CCCCCCC1)[C@]1(C(=O)Nc3ccc(C#CC4(O)CCCCCC4)cc31)[C@H]2c1ccc(O)cc1` reaches -0.8 or more?
Given back: Condition met

Asked: In plain terms: is recorded z-score at least -0.8 for `[N-]=[N+]=Nc1ccccc1C[C@@]1(C(=O)O)N=C(c2ccc(OCCCO)cc2)O[C@@H]1c1ccccc1N=[N+]=[N-]` ?
Given back: Condition met

Asked: Hello, I need to know if `O=C(NCCN1CCOCC1)[C@@H]1c2ccccc2C(=O)N(Cc2ccccc2)[C@H]1c1ccc(CO)cc1` has measured z-score not below -0.8. Thanks!
Given back: Condition not met

Asked: z-score >= -0.8 for `NC(=O)[C@@H]1[C@H]2C(=O)O[C@H](c3ccccc3)[C@H](c3ccccc3)N2[C@H](c2ccc(OCCO)cc2)[C@@]12C(=O)Nc1ccc(C#CCCO)cc12` ?
Given back: Condition met

Asked: Does the molecule `COCC(=C=CC[C@@H](O)c1cccc(OCCO)c1)CCO` have recorded z-score that is -0.8 or more?
Given back: Condition met

Asked: State whether the measured z-score reaches -0.8, counting equality as reaching it, for C=C(C)[C@@H]1CC=C(C(O)C2C=CC3C(=O)N(c4ccccc4)C(=O)C3N2Nc2ccc(C#N)cc2)CC1 (some centres not stated)
Given back: Condition not met

These measurements were taken from PubChem BioAssay.
